meta.source: patent US11142522B2

System: A549
Experiment: Cell proliferation measurement (Cell Titer Glo, 72 h)
Assay type: cell-based
Details: Homo sapiens, A549, Lung adenocarcinoma, printed as (inactive)
READOUT_TYPE: IC50

Data request: Find the recorded IC50 belonging to C[C@@H]1CC(=O)NN=C1c1cc(F)c(N2CCOCC2)c(F)c1 [Compound 1] and report it.
Data returned: > 600 nM

---

What clearance was measured for each of the following?
Experiment: In vivo pharmacokinetics in dogs
Details: female, Beagle, dog, plasma, iv, after i.v., read-out: clearance in dogs (CLp) (converted)
Experimental: For in vivo pharmacokinetic experiments test compounds were administered to non-rodents (e.g. female Beagle dogs) intravenously at doses of 0.1 to 1 mg/kg and intragastral at doses of 0.3 to 3 mg/kg formulated as solutions using solubilizers such as PEG400 in well-tolerated amounts and are usually given as short term infusion (15 min). Blood samples were taken e.g. at 2 min, 8 min, 15 min, 30 min, 45 min, 1 h, 2 h, 4 h, 6 h, 8 h and 24 h after dosing from the vena saphena. […]
Answers are plain numbers, in mL/min/kg.

[[record]]
compound = "C[C@@H]1CC(=O)NN=C1c1ccc(N2CCOCC2)c(F)c1 [reference compound]"
readout_type = "clearance"
observed = 28.3


Data request: Find the recorded clearance belonging to C[C@@H]1CC(=O)NN=C1c1cc(F)c(N2CCOCC2)c(F)c1 [Compound 1] and report it.
Data returned: 12.8
